test.target: HIV-1 reverse transcriptase (HIV-RT) (HIV-1, UniProt P04585;P04585 P04585:588-1147,P04585:588-1027)
assay.overview: filter
measured.property: binding signal

// solved cases for binding signal follow
GGUCCGAAGUGCAACGGGAAAAU (ssRNA) [ligand B 3' truncation G22-U26]; ~12 fold lower affinity
GGUCGGAAGUGCAACCGGAAAAUGCACU (ssRNA) [ligand B C3-G14 to G-C]; ~10 fold lower affinity
GGCCCGAAGUGCAACGGGAAAAUGCACU (ssRNA) [ligand B U1C]; ~20 fold lower affinity
GGUCCAAAGUGCAAUGGGAAAAUGCACU (ssRNA) [ligand B G4-C13 to A-U]; ~20 fold lower affinity

Supply recorded binding signal for GGUCCGAAGUGCAACGGGAAAAUG (ssRNA) [ligand B 3' truncation C23-U26] here.
7 fold lower affinity
